The origin of these recorded values is ChEMBL document CHEMBL1123423.

assay: Half-life in 90% human heparinized plasma.; assay type: ADME
OUTCOME MEASURE: half-life (min)

Use these answered entries as a reference point.
>  <MOLECULE>
CC(C)C(=O)OCOC(=O)[C@H]1CC[C@H](CN)CC1.Cl

>  <OUTCOME MEASURE>
half-life

>  <RECORDED MEASUREMENT>
0.5

$$$$
>  <MOLECULE>
CCOC(=O)[C@H]1CC[C@H](CN)CC1.Cl

>  <OUTCOME MEASURE>
half-life

>  <RECORDED MEASUREMENT>
240

$$$$
>  <MOLECULE>
C[C@]1(CN)CC[C@H](C(=O)OCOC(=O)[C@H]2CC[C@H](CN)CC2)CC1.Cl.Cl

>  <OUTCOME MEASURE>
half-life

>  <RECORDED MEASUREMENT>
1.5

$$$$
>  <MOLECULE>
CCC(OC(=O)[C@H]1CC[C@H](CN)CC1)OC(=O)[C@H]1CC[C@](C)(CN)CC1.Cl.Cl (some centres not stated)

>  <OUTCOME MEASURE>
half-life

>  <RECORDED MEASUREMENT>
6

$$$$
>  <MOLECULE>
CC(C)(C)C(=O)OCOC(=O)[C@H]1CC[C@H](CN)CC1.Cl

>  <OUTCOME MEASURE>
half-life

>  <RECORDED MEASUREMENT>
2

$$$$

a: CCOC(=O)OC(C)OC(=O)[C@H]1CC[C@H](CN)CC1.Cl (some centres not stated)
b: CC(=O)OC(C)OC(=O)[C@H]1CC[C@H](CN)CC1.Cl (some centres not stated)
Lab note: check whether a or b shows the higher recorded half-life. Refer to your chosen item by its label in the answer.
b
(b: 6 min, a: 1.5 min)

###

test system: Rattus norvegicus; assay: Compound was evaluated for percent recovery of tranexamic acid in urine from rat within 24 hr after oral administration of the dose […] of body weight; type: ADME, organism-based; settings: in vivo
OUTCOME MEASURE: Recovery (%)

Examples with their reported Recovery follow.
>  <COMPOUND>
CC(C)OC(=O)OC(C)OC(=O)[C@H]1CC[C@H](CN)CC1.Cl (stereo not given in full)

>  <TGT>
Rattus norvegicus

>  <Recovery / %>
43

$$$$
>  <COMPOUND>
CC(C)(C)C(=O)OCOC(=O)[C@H]1CC[C@H](CN)CC1.Cl

>  <TGT>
Rattus norvegicus

>  <Recovery / %>
36

$$$$

I: CCOC(=O)OC(C)OC(=O)[C@H]1CC[C@H](CN)CC1.Cl (stereo not given in full)
II: C[C@]1(CN)CC[C@H](C(=O)OCOC(=O)[C@H]2CC[C@H](CN)CC2)CC1.Cl.Cl
For the pair I and II , which member has the lower Recovery number? Write down the label attached to your selection.
II

###

experiment: Half-life in buffer at pH 7.5; assay type: ADME
OUTCOME MEASURE: half-life (days)

# annotated cases, reported half-life shown
>  <MOLECULE>
CCOC(=O)OC(C)OC(=O)[C@H]1CC[C@H](CN)CC1.Cl (some centres not stated)

>  <OUTCOME MEASURE>
half-life

>  <RECORDED MEASUREMENT>
3.75

$$$$
>  <MOLECULE>
CC(=O)OC(C)OC(=O)[C@H]1CC[C@H](CN)CC1.Cl (some centres not stated)

>  <OUTCOME MEASURE>
half-life

>  <RECORDED MEASUREMENT>
2.83

$$$$
>  <MOLECULE>
CCOC(=O)C(OC(=O)[C@H]1CC[C@H](CN)CC1)OC(=O)[C@H]1CC[C@](C)(CN)CC1.Cl.Cl (some centres not stated)

>  <OUTCOME MEASURE>
half-life

>  <RECORDED MEASUREMENT>
0.0375

$$$$

P: CCC(OC(=O)[C@H]1CC[C@H](CN)CC1)OC(=O)[C@H]1CC[C@](C)(CN)CC1.Cl.Cl (some centres not stated)
Q: CC(C)(C)C(=O)NCOC(=O)[C@H]1CC[C@H](CN)CC1.Cl
R: CC(C)(C)C(=O)OCOC(=O)[C@H]1CC[C@H](CN)CC1.Cl
S: CC(C)C(=O)OCOC(=O)[C@H]1CC[C@H](CN)CC1.Cl
List these items ordered by half-life, big to small. In plain terms: list the labels in the order you were asked to.
R, P, S, Q
(R: 6.12 days, P: 2.92 days, S: 1.5 days, Q: 0.417 days)
